Molecular target: Chaperone protein DnaK (Escherichia coli (strain K12)) (UniProt P0A6Y8)
Assay: blockers of bacterial DnaK function – luminescence, E. coli K12, primary screen (AID 547);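 also: tested at 10 µM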
Conditions: DnaK chaperone assay, luminescence read-out
The campaign covered roughly 1,300 compounds. About 10 (0.8%) were called active. No rule for the calls is given here. For the sample, actives were picked, then their nearest neighbours and some compounds at random.
Mark one answer only. Choices: Y = active, N = inactive

Worked examples, 2 compounds total:
compound	answer label
Nc1nc(SCc2ccc([N+](=O)[O-])cc2)c2ncn([C@@H]3O[C@H](CO)[C@H](O)C3O)c2n1 (stereo partly drawn)	N
O=C(c1ccccc1)c1ccc2n1CCC2C(=O)O (stereo not drawn)	N

Next compound, please.
[ask] Identify the outcome logged in this assay for the compound shown: O=C(Nc1ccc([N+](=O)[O-])cc1Cl)c1cc(Cl)ccc1O
[reply] Y

====

Target: Chaperone protein DnaK (Escherichia coli (strain K12))
Test: blockers of bacterial DnaK function – luminescence, E. coli K12, primary screen (AID 547);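 also: tested at 10 µM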
Details: DnaK chaperone assay, luminescence read-out; active compounds read low
The whole screen tested about 1,300 compounds, of which about 10 (0.8%) were called active. This excerpt belongs to a sample that is enriched for actives.
measured property: luminescence

Solved entries (count: 3):
compound	luminescence
O=C(O)c1cc2cc(Cc3cccnc3)ccc2o1	3.2e+06 cps (inactive)
CCCC(=O)NCCc1c2n(c3ccc(OC)cc13)CCCc1ccccc1-2	2.6e+06 cps (inactive)
CN=C(N)NCCC[C@H](N)C(=O)O	2.2e+06 cps (inactive)

[ask] // luminescence lookup, key: CCCCCCCC/C=C\CCCCCCCC(=O)NCCO
[reply] 2.9e+06 cps (inactive)

[ask] Request: O=c1ccc2c(OCCCCc3ccccc3)c3ccoc3cc2o1
[reply] 2.8e+06 cps (inactive)

[ask] Request: Fc1ccc(C(OCCCc2cnc[nH]2)c2ccc(F)cc2)cc1
[reply] 2.6e+06 cps (inactive)

[ask] Request: O=C(O)C1CN(CCCP(=O)(O)O)CCN1 (configuration not stated)
[reply] 2.6e+06 cps (inactive)

====

Target: Chaperone protein DnaK (Escherichia coli (strain K12)) (UniProt P0A6Y8)
Experiment: blockers of bacterial DnaK function – luminescence, E. coli K12, primary screen (AID 547);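 also: tested at 10 µM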
Settings: DnaK chaperone assay, luminescence read-out; active compounds read low
About 10 (0.8%) of roughly 1,300 compounds were called active. The list comes from a sample in which actives are over-represented; it also holds close analogues and randomly drawn compounds.
measured property: luminescence

Solved entries (count: 5):
molecule	target under test	luminescence
Nc1ncnc2c1nc(Sc1ccc(Cl)cc1)n2C1OC2COP(=O)(O)O[C@@H]2[C@@H]1O (stereo partly specified)	Chaperone protein DnaK (Escherichia coli (strain K12)) (UniProt P0A6Y8)	2.7e+06 cps (inactive)
CC(COc1ccc(/C=C/c2ccccc2)cc1)[N+](C)(C)C (stereo unspecified)	Chaperone protein DnaK (Escherichia coli (strain K12)) (UniProt P0A6Y8)	2.1e+06 cps (inactive)
COc1ccc(CCN(C)CCCC(C#N)(c2cc(OC)c(OC)c(OC)c2)C(C)C)cc1OC (stereo unspecified)	Chaperone protein DnaK (Escherichia coli (strain K12)) (UniProt P0A6Y8)	2.5e+06 cps (inactive)
CNC(=O)[C@H]1O[C@@H](n2cnc3c(NCc4ccc(N)cc4)ncnc32)C(O)[C@H]1O (stereo partly specified)	Chaperone protein DnaK (Escherichia coli (strain K12)) (UniProt P0A6Y8)	2.7e+06 cps (inactive)
O=S(=O)(NCCNC/C=C/c1ccc(Br)cc1)c1cccc2cnccc12	Chaperone protein DnaK (Escherichia coli (strain K12)) (UniProt P0A6Y8)	2.4e+06 cps (inactive)

[ask] // luminescence lookup, key: O=C1C2C=CC=CC2=NC(=S)N1CCN1CCC(=C(c2ccc(F)cc2)c2ccc(F)cc2)CC1 (stereo unspecified)
[reply] 2.9e+06 cps (inactive)

[ask] Request: O=C1NC(c2cccc([N+](=O)[O-])c2)=CCN1c1ccccc1O
[reply] 3e+06 cps (inactive)

[ask] Request: CC(=O)N[C@H](C(=O)O)C(C)(C)SN=O
[reply] 2.5e+06 cps (inactive)

[ask] Request: C[C@H](Cc1ccc(O)c(O)c1)[C@@H](C)Cc1ccc(O)c(O)c1
[reply] 2e+06 cps (inactive)

[ask] Request: Nc1ccc(N2C(=O)c3ccccc3C2=O)c(Cl)c1
[reply] 2.7e+06 cps (inactive)

[ask] Request: Cc1cc(C)c(NC(=O)C[C@H](CC(=O)O)c2cccc3ccccc23)c(C(=O)N2CCC3(CCCC3)CC2)c1
[reply] 2.4e+06 cps (inactive)
